Recorded Biodistribution: Pancreas, one value per entry.
method: In vivo biodistribution in mice
Set-up: species or system normal CD-1 male mice
testConditions: iv, 120 min post injection
quantityMeasured: Biodistribution: Pancreas (% dose/g)

- compound: "O=C([O-])CN(CCN(CC(=O)[O-])Cc1cc(CCC(=O)NC(P(=O)(O)O)P(=O)(O)O)ccc1[O-])Cc1cc(CCC(=O)NCC(=O)O)ccc1[O-].[68Ga+3] [[^68Ga]1c]"
  quantityMeasured: "Biodistribution: Pancreas"
  number: 0.20
- compound: "O=C([O-])CN(CCN(CC(=O)[O-])Cc1cc(CCC(=O)NC(P(=O)(O)O)P(=O)(O)O)ccc1[O-])Cc1cc(CCC(=O)NCCCCCC(=O)NCCCC[C@H](NC(=O)N[C@@H](CCC(=O)O)C(=O)O)C(=O)O)ccc1[O-].[68Ga+3] [[^68Ga]1g]"
  quantityMeasured: "Biodistribution: Pancreas"
  number: 0.34
- compound: "O=C([O-])CN(CCN(CC(=O)[O-])Cc1cc(CCC(=O)NC(P(=O)(O)O)P(=O)(O)O)ccc1[O-])Cc1cc(CCC(=O)NCCNC(=O)CN2CCN(CC(=O)O)CCN(CC(=O)O)CCN(CC(=O)O)CC2)ccc1[O-].[68Ga+3] [[^68Ga]1h]"
  quantityMeasured: "Biodistribution: Pancreas"
  number: 0.04

* * *

method: In vivo biodistribution in mice
Parameters: species or system normal CD-1 male mice
testConditions: iv, 2 min post injection
Description: Biodistribution experiments were performed by intravenously administering ^68Ga labeled 1a-h, 2, 3, BPAMD, and [^18F]NaF into normal, healthy male CD-1 mice (25-30 g). The injection activity was 20-30 μCi/animal. […] Organs of interest were harvested, weighed, and counts of radioactivity were measured by a gamma counter. The biodistribution of each sample was calculated as a percentage of the injected dose per gram of wet tissue weight (% ID/g). […]
quantityMeasured: Biodistribution: Brain

- molecule: "O=C([O-])CN(CCN(CC(=O)[O-])Cc1cc(CCC(=O)NC(P(=O)(O)O)P(=O)(O)O)ccc1[O-])Cc1cc(CCC(=O)NCCCCCC(=O)NCCCC[C@H](NC(=O)N[C@@H](CCC(=O)O)C(=O)O)C(=O)O)ccc1[O-].[68Ga+3] [[^68Ga]1g]"
  result: "0.21 ± 0.03 % dose/g"
- molecule: "O=C([O-])CN(CCN(CC(=O)[O-])Cc1cc(CCC(=O)N[C@@H](CC(=O)O)C(=O)O)ccc1[O-])Cc1cc(CCC(=O)NC(P(=O)(O)O)P(=O)(O)O)ccc1[O-].[68Ga+3] [[^68Ga]1e]"
  result: "0.20 ± 0.04 % dose/g"
- molecule: "O=C([O-])CN(CCN(CC(=O)[O-])Cc1cc(CCC(=O)NC(P(=O)(O)O)P(=O)(O)O)ccc1[O-])Cc1cc(CCC(=O)NC2C(O)OC(CO)C(O)C2O)ccc1[O-].[68Ga+3] (centres unmarked) [[^68Ga]1b]"
  result: "0.20 ± 0.04 % dose/g"
- molecule: "C[C@H](NC(=O)CCc1ccc([O-])c(CN(CCN(CC(=O)[O-])Cc2cc(CCC(=O)NC(P(=O)(O)O)P(=O)(O)O)ccc2[O-])CC(=O)[O-])c1)C(=O)O.[68Ga+3] [[^68Ga]1d]"
  result: "0.29 ± 0.05 % dose/g"
- molecule: "[18F-].[Na+] [[^18F]NaF, reference compound]"
  result: "0.22 ± 0.07 % dose/g"

* * *

method: In vivo biodistribution in mice
Parameters: species or system normal CD-1 male mice
testConditions: iv, 30 min (0.5 hr) post injection
quantityMeasured: Biodistribution: Muscle (% dose/g)

- compound: "O=C([O-])CN(CCN(CC(=O)[O-])Cc1cc(CCC(=O)NC(P(=O)(O)O)P(=O)(O)O)ccc1[O-])Cc1cc(CCC(=O)NC2C(O)OC(CO)C(O)C2O)ccc1[O-].[68Ga+3] (stereo not drawn) [[^68Ga]1b]"
  quantityMeasured: "Biodistribution: Muscle"
  number: 0.24
- compound: "[18F-].[Na+] [[^18F]NaF, reference compound]"
  quantityMeasured: "Biodistribution: Muscle"
  number: 0.33
- compound: "O=C([O-])CN(CCN(CC(=O)[O-])Cc1cc(CCC(=O)NC(P(=O)(O)O)P(=O)(O)O)ccc1[O-])Cc1cc(CCC(=O)NCC(=O)O)ccc1[O-].[68Ga+3] [[^68Ga]1c]"
  quantityMeasured: "Biodistribution: Muscle"
  number: 0.23

* * *

method: In vivo biodistribution in mice
Design: species or system normal CD-1 male mice
testConditions: iv, 2 min
// assign satisfied if bone to muscle ratio falls strictly below 5, else not satisfied (ties count as not satisfied)

- compound: "O=C([O-])CN(CCN(CC(=O)[O-])Cc1cc(CCC(=O)NC(P(=O)(O)O)P(=O)(O)O)ccc1[O-])Cc1cc(CCC(=O)NCCCNC(=O)CCc2ccc(O)c(CN(CCN(CC(=O)O)Cc3cc(CCC(=O)NC(P(=O)(O)O)P(=O)(O)O)ccc3O)CC(=O)O)c2)ccc1[O-].[68Ga+3] [[^68Ga]3]"
  assignedCategory: "satisfied"
- compound: "O=C([O-])CN(CCN(CC(=O)[O-])Cc1cc(CCC(=O)O)ccc1[O-])Cc1cc(CCC(=O)O)ccc1[O-].[68Ga+3] [[^68Ga]HBED-CC, reference compound]"
  assignedCategory: "satisfied"
- compound: "O=C([O-])CN(CCN(CC(=O)[O-])Cc1cc(CCC(=O)NC(P(=O)(O)O)P(=O)(O)O)ccc1[O-])Cc1cc(CCC(=O)NC2C(O)OC(CO)C(O)C2O)ccc1[O-].[68Ga+3] (centres unmarked) [[^68Ga]1b]"
  assignedCategory: "satisfied"
- compound: "C[C@H](NC(=O)CCc1ccc([O-])c(CN(CCN(CC(=O)[O-])Cc2cc(CCC(=O)NC(P(=O)(O)O)P(=O)(O)O)ccc2[O-])CC(=O)[O-])c1)C(=O)O.[68Ga+3] [[^68Ga]1d]"
  assignedCategory: "not satisfied"
- compound: "O=C(O)CN1CCN(CC(=O)O)CCN(CC(=O)NC(P(=O)(O)O)P(=O)(O)O)CCN(CC(=O)O)CC1.[68Ga] [[^68Ga]BPAMD, reference compound]"
  assignedCategory: "satisfied"

* * *

method: In vivo biodistribution in mice
Design: species or system normal CD-1 male mice
testConditions: iv, 120 min post injection
# Biodistribution: Lung per entry
quantityMeasured: Biodistribution: Lung (% dose/g)

- molecule: "O=C([O-])CN(CCN(CC(=O)[O-])Cc1cc(CCC(=O)O)ccc1[O-])Cc1cc(CCC(=O)O)ccc1[O-].[68Ga+3] [[^68Ga]HBED-CC, reference compound]"
  unitOfMeasurement: "% dose/g"
  number: 0.07
- molecule: "[18F-].[Na+] [[^18F]NaF, reference compound]"
  unitOfMeasurement: "% dose/g"
  number: 0.04
- molecule: "O=C([O-])CN(CCN(CC(=O)[O-])Cc1cc(CCC(=O)NC(P(=O)(O)O)P(=O)(O)O)ccc1[O-])Cc1cc(CCC(=O)NCC(=O)O)ccc1[O-].[68Ga+3] [[^68Ga]1c]"
  unitOfMeasurement: "% dose/g"
  number: 0.31
- molecule: "O=C([O-])CN(CCN(CC(=O)[O-])Cc1cc(CCC(=O)NC(P(=O)(O)O)P(=O)(O)O)ccc1[O-])Cc1cc(CCC(=O)NC2C(O)OC(CO)C(O)C2O)ccc1[O-].[68Ga+3] (centres unmarked) [[^68Ga]1b]"
  unitOfMeasurement: "% dose/g"
  number: 0.86
- molecule: "O=C([O-])CN(CCN(CC(=O)[O-])Cc1cc(CCC(=O)N[C@@H](CC(=O)O)C(=O)O)ccc1[O-])Cc1cc(CCC(=O)NC(P(=O)(O)O)P(=O)(O)O)ccc1[O-].[68Ga+3] [[^68Ga]1e]"
  unitOfMeasurement: "% dose/g"
  number: 0.12

* * *

method: In vivo biodistribution in mice
Parameters: species or system normal CD-1 male mice
testConditions: iv, 60 min (1 hr) post injection
quantityMeasured: Biodistribution: Pancreas (% dose/g)

- compound: "O=C([O-])CN(CCN(CC(=O)[O-])Cc1cc(CCC(=O)NC(P(=O)(O)O)P(=O)(O)O)ccc1[O-])Cc1cc(CCC(=O)NCC(=O)O)ccc1[O-].[68Ga+3] [[^68Ga]1c]"
  quantityMeasured: "Biodistribution: Pancreas"
  number: 0.23
- compound: "O=C([O-])CN(CCN(CC(=O)[O-])Cc1cc(CCC(=O)NC(P(=O)(O)O)P(=O)(O)O)ccc1[O-])Cc1cc(CCC(=O)NCCNC(=O)CN2CCN(CC(=O)O)CCN(CC(=O)O)CCN(CC(=O)O)CC2)ccc1[O-].[68Ga+3] [[^68Ga]1h]"
  quantityMeasured: "Biodistribution: Pancreas"
  number: 0.05
- compound: "O=C(O)CN1CCN(CC(=O)O)CCN(CC(=O)NC(P(=O)(O)O)P(=O)(O)O)CCN(CC(=O)O)CC1.[68Ga] [[^68Ga]BPAMD, reference compound]"
  quantityMeasured: "Biodistribution: Pancreas"
  number: 0.30
- compound: "O=C([O-])CN(CCN(CC(=O)[O-])Cc1cc(CCC(=O)NC(P(=O)(O)O)P(=O)(O)O)ccc1[O-])Cc1cc(CCC(=O)O)ccc1[O-].[68Ga+3] [[^68Ga]1a]"
  quantityMeasured: "Biodistribution: Pancreas"
  number: 0.09
- compound: "O=C([O-])CN(CCN(CC(=O)[O-])Cc1cc(CCC(=O)N[C@@H](CC(=O)O)C(=O)O)ccc1[O-])Cc1cc(CCC(=O)NC(P(=O)(O)O)P(=O)(O)O)ccc1[O-].[68Ga+3] [[^68Ga]1e]"
  quantityMeasured: "Biodistribution: Pancreas"
  number: 0.06
- compound: "O=C([O-])CN1CCN(CC(=O)[O-])CCN(CC(=O)NCCNC(=O)CCc2ccc(O)c(CN(CCN(CC(=O)O)Cc3cc(CCC(=O)NC(P(=O)(O)O)P(=O)(O)O)ccc3O)CC(=O)O)c2)CCN(CC(=O)[O-])CC1.[177Lu+3] [[^177Lu]1h]"
  quantityMeasured: "Biodistribution: Pancreas"
  number: 0.07
- compound: "O=C([O-])CN(CCN(CC(=O)[O-])Cc1cc(CCC(=O)O)ccc1[O-])Cc1cc(CCC(=O)O)ccc1[O-].[68Ga+3] [[^68Ga]HBED-CC, reference compound]"
  quantityMeasured: "Biodistribution: Pancreas"
  number: 0.13
- compound: "C[C@H](NC(=O)CCc1ccc([O-])c(CN(CCN(CC(=O)[O-])Cc2cc(CCC(=O)NC(P(=O)(O)O)P(=O)(O)O)ccc2[O-])CC(=O)[O-])c1)C(=O)O.[68Ga+3] [[^68Ga]1d]"
  quantityMeasured: "Biodistribution: Pancreas"
  number: 0.06
- compound: "O=C([O-])CN(CCN(CC(=O)[O-])Cc1cc(CCC(=O)NC(P(=O)(O)O)P(=O)(O)O)ccc1[O-])Cc1cc(CCC(=O)NCCCCCC(=O)NCCCC[C@H](NC(=O)N[C@@H](CCC(=O)O)C(=O)O)C(=O)O)ccc1[O-].[68Ga+3] [[^68Ga]1g]"
  quantityMeasured: "Biodistribution: Pancreas"
  number: 0.37
